target: c-kit (Homo sapiens); construct: human Mo7e cells which endogenously express c-kit; endogenous in cells; host or cells: human Mo7e cells (SCF-dependent promegakaryocytic leukemia line); assay: Mo7e cell proliferation assay (SCF dependent proliferation); assay type: cell-based; settings: Table 2; human Mo7e cells stimulated with human recombinant SCF, 48 h, CellTiter Glo; 1% FBS (footnote)
Sequence (P10721 26-976): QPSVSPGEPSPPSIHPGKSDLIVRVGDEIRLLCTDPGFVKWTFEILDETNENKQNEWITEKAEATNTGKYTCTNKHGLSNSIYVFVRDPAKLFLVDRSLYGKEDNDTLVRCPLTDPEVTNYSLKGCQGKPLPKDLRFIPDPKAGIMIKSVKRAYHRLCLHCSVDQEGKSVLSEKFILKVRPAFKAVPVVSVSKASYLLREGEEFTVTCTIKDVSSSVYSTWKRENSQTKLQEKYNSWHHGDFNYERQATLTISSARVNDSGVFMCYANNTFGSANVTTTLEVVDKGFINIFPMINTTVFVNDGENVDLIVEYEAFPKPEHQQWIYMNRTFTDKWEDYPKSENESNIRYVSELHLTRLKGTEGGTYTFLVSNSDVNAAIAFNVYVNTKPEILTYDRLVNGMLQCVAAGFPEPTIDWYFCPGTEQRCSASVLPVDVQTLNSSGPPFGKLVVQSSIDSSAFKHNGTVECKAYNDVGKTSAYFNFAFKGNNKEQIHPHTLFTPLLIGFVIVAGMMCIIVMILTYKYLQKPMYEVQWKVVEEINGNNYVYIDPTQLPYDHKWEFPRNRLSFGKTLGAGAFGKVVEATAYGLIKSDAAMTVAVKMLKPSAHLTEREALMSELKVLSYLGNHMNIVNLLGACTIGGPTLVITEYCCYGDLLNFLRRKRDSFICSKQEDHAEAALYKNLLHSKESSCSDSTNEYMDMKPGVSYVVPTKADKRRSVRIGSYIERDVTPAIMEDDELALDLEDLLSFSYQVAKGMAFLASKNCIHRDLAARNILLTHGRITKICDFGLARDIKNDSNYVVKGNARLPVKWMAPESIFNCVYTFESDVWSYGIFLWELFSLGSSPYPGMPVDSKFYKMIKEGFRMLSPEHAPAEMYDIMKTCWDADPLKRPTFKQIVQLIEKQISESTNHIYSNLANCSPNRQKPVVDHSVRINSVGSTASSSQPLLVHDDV
Recorded IC50 values for a group of compounds are listed next.
Unit nM implied. Number only.

Cc1ccc(-c2noc(CO)n2)cc1NC(=O)c1cnc2ccccn12 [F124]	217
COC(=O)NCCc1nc(-c2ccc(C)c(NC(=O)c3cnc4ccccn34)c2)no1 [F122]	326
Cc1nc(-c2ccc(C)c(NC(=O)c3cnc4ccc(-c5nc(C)c(C)s5)cn34)c2)no1 [F237]	182

For the compound Cc1nc(-c2ccc(C)c(NC(=O)c3cnc4ccc(-c5cncnc5)cn34)c2)no1 [F206] , give its measured IC50 value.
196

Identify measured IC50 associated with CC(=O)OCc1nc(-c2ccc(C)c(NC(=O)c3cnc4ccccn34)c2)no1 [F172]
156

Identify IC50 associated with the compound O=C(Nc1cc(-c2noc(CC(O)(C(F)(F)F)C(F)(F)F)n2)ccc1F)c1cnc2ccccn12 [F153]
246

Give recorded IC50. Cc1ccc(-c2noc(CF)n2)cc1NC(=O)c1cnc2ccccn12 [F161]
173

Given Cc1ccc(-c2noc(C(C)(C)O)n2)cc1NC(=O)c1cnc2ccccn12 [F173] , respond with its IC50.
281
